The measurements presented in this section are drawn from patent EP4039268A1.

target: T1, full-length trimeric SARS-CoV-2 Spike protein (Spike-H6) (SARS-CoV-2, N-glycosylated (22 N-glycosylation sites)); assay: ELISA screen
T1 construct: also called trimeric Spike; full-length Spike-H6
Provide the recorded Mean normalized OD for the entries that follow.
Answers are plain numbers, in OD.

binder	measured.value
Mrc1_1 CRD-mouse IgG2a-Fc fusion protein (Fc fusion) LTGILYQINSKSALTWHQARASCKQQNADLLSVTEIHEQMYLTGLTSSLSSGLWIGLNSLSVRSGWQWAGGSPFRYLNWLPGSPSSEPGKSCVSLNPGKNAKWENLECVQKLGYICKGGGSGGGSGGGS	0.109
Clec6a CRD-mouse IgG2a-Fc fusion protein (Fc fusion) FGSSCYLISTKENFWSTSEQNCVQMGAHLVVINTEAEQNFITQQLNESLSYFLGLSDPQGNGKWQWIDDTPFSQNVRFWHPHEPNLPEERCVSIVYWNPSKWGWNDVFCDSKHNSICEGGGSGGGSGGGS	0.003
Pla2r1_1 CRD-mouse IgG2a-Fc fusion protein (Fc fusion) SSRICYQFNLLSSLSWNQAHSSCLMQGGALLSIADEDEEDFIRKHLSKVVKEVWIGLNQLDEKAGWQWSDGTPLSYLNWSQEITPGPFVEHHCGTLEVVSAAWRSRDCESTLPYICKGGGSGGGSGGGS	0
Reg2 CRD-mouse IgG2a-Fc fusion protein (Fc fusion) INCPEGANAYGSYCYYLIEDRLTWGEADLFCQNMNAGHLVSILSQAESNFVASLVKESGTTASNVWTGLHDPKSNRRWHWSSGSLFLFKSWATGAPSTANRGYCVSLTSNTAYKKWKDENCEAQYSFVCKFGGGSGGGSGGGS	0.056

Provide Mean normalized OD for all items below, preserving their order.
1. Colec11 CRD-mouse IgG2a-Fc fusion protein (Fc fusion) TESKIYLLVKEEKRYADAQLSCQARGGTLSMPKDEAANGLMASYLAQAGLARVFIGINDLEKEGAFVYSDRSPMQTFNKWRSGEPNNAYDEEDCVEMVASGGWNDVACHITMYFMCEGGGSGGGSGGGS
2. Lgals6_2 CRD-mouse IgG2a-Fc fusion protein (Fc fusion) YVGALQGGFTVRRTIIIKGYVLPTAKTFAINFRVGSSEDIALHINPRIGDCLVRNSYMNGSWGTEERMVAYNPFGPGQFFDLSIRCGMDRFKVFANGIHLFNFSHRFQALRKINTLEINGDLTLSYVHIGGGSGGGSGGGS
3. Pla2r1_8 CRD-mouse IgG2a-Fc fusion protein (Fc fusion) FKGNCYSFSTVLDSRSFEDAHEFCKSEGSNLLAIRDAAENSFLLEELLAFGSSVQMVWLNAQFDNNNKTLRWFDGTPTEQSNWGLRKPDMDHLKPHPCVVLRIPEGIWHFTPCEDKKGFICKGGGSGGGSGGGS

Result:
[0.043, 0.135, -0.002]
